All values here come from patent US10765674B2.

# EXPERIMENTAL DETAILS: Plasma kinetics of TMC278 in beagle dogs after single intramuscular administration
# Type: in vivo
# REPORTED CONDITIONS: male, beagle, dog, plasma, intramuscular, 2.5 mg/kg, dog No. 16854; day 92; single IM 2.5 mg/kg, aqueous 30% DMA/50% PEG400 solution; read-out: plasma concentration during the wash-out period

>  <MOLECULAR STRING>
Cc1cc(C=CC#N)cc(C)c1Nc1ccnc(Nc2ccc(C#N)cc2)n1

>  <concentration at 92 day (ng/mL)>
2.32

$$$$

---

# EXPERIMENTAL DETAILS: Plasma kinetics of TMC278 in beagle dogs after single intramuscular administration
# Format: in vivo
# REPORTED CONDITIONS: male, beagle, dog, plasma, intramuscular, 2.5 mg/kg, dog No. 16924; 0 h (predose); single IM 2.5 mg/kg, aqueous 30% DMA/50% PEG400 solution
MEASUREMENT LABEL: concentration at 0 h

>  <MOLECULAR STRING>
Cc1cc(C=CC#N)cc(C)c1Nc1ccnc(Nc2ccc(C#N)cc2)n1

>  <READOUT VALUE>
< 1 ng/mL

$$$$

---

# EXPERIMENTAL DETAILS: Plasma kinetics of TMC278 in beagle dogs after single intramuscular administration
# Format: in vivo
# REPORTED CONDITIONS: male, beagle, dog, plasma, intramuscular, 2.5 mg/kg, mean (n=2); 240 h after dose; single IM 2.5 mg/kg, aqueous 30% DMA/50% PEG400 solution

>  <COMPOUND>
Cc1cc(C=CC#N)cc(C)c1Nc1ccnc(Nc2ccc(C#N)cc2)n1 [TMC278]

>  <concentration at 240 h / ng/mL>
5.27

$$$$

---

# EXPERIMENTAL DETAILS: Plasma kinetics of TMC278 in beagle dogs after single intramuscular administration
# Type: in vivo
# REPORTED CONDITIONS: male, beagle, dog, plasma, intramuscular, 2.5 mg/kg, mean (n=2); 2 h after dose; single IM 2.5 mg/kg, aqueous 30% DMA/50% PEG400 solution
MEASUREMENT LABEL: concentration at 2 h (ng/mL)

>  <COMPOUND>
Cc1cc(C=CC#N)cc(C)c1Nc1ccnc(Nc2ccc(C#N)cc2)n1 [TMC278]

>  <UNIT TAG>
ng/mL

>  <READOUT VALUE>
20.8

$$$$

---

# EXPERIMENTAL DETAILS: Plasma kinetics of TMC278 in beagle dogs after single intramuscular administration
# Format: in vivo
# REPORTED CONDITIONS: male, beagle, dog, plasma, intramuscular, 2.5 mg/kg, mean (n=2); day 92; single IM 2.5 mg/kg, aqueous 30% DMA/50% PEG400 solution; read-out: plasma concentration during the wash-out period

>  <MOLECULAR STRING>
Cc1cc(C=CC#N)cc(C)c1Nc1ccnc(Nc2ccc(C#N)cc2)n1

>  <UNIT TAG>
ng/mL

>  <concentration at 92 day>
2.42

$$$$

---

# EXPERIMENTAL DETAILS: Plasma kinetics of TMC278 in beagle dogs after single intramuscular administration
# Format: in vivo
# REPORTED CONDITIONS: male, beagle, dog, plasma, intramuscular, 2.5 mg/kg, mean (n=2); day 134; single IM 2.5 mg/kg, aqueous 30% DMA/50% PEG400 solution; read-out: plasma concentration during the wash-out period

>  <MOLECULAR STRING>
Cc1cc(C=CC#N)cc(C)c1Nc1ccnc(Nc2ccc(C#N)cc2)n1

>  <concentration at 134 day (ng/mL)>
1.64

$$$$

---

# EXPERIMENTAL DETAILS: Plasma kinetics of TMC278 in beagle dogs after single intramuscular administration
# Format: in vivo
# REPORTED CONDITIONS: male, beagle, dog, plasma, intramuscular, 2.5 mg/kg, dog No. 16924; day 272; single IM 2.5 mg/kg, aqueous 30% DMA/50% PEG400 solution; read-out: plasma concentration during the wash-out period

>  <COMPOUND>
Cc1cc(C=CC#N)cc(C)c1Nc1ccnc(Nc2ccc(C#N)cc2)n1 [TMC278]

>  <concentration at 272 day>
< 1 ng/mL

$$$$

---

# EXPERIMENTAL DETAILS: Plasma kinetics of TMC278 in beagle dogs after single intramuscular administration
# Assay type: in vivo
# REPORTED CONDITIONS: male, beagle, dog, plasma, im, 2.5 mg/kg, dog No. 16854; single IM 2.5 mg/kg, aqueous 30% DMA/50% PEG400 solution
MEASUREMENT LABEL: Cmax

>  <MOLECULAR STRING>
Cc1cc(C=CC#N)cc(C)c1Nc1ccnc(Nc2ccc(C#N)cc2)n1

>  <READOUT VALUE>
39.9 ng/mL

$$$$

---

# EXPERIMENTAL DETAILS: Tissue concentrations of TMC278 in beagle dog (biopsy on day 232) after single intramuscular administration
# Format: in vivo, beagle dogs
# REPORTED CONDITIONS: male, beagle, intramuscular; iliac lymph node at the side of injection; dog No. 16924; day 232 after single IM 2.5 mg/kg, aqueous 30% DMA/50% PEG400 solution
# Experimental: On day 232 post-dose, a biopsy was performed (dog No. 16924 only) on the iliac lymph node (at the side of injection), on a muscle from the non-injected hind leg and on a muscle at the side of injection after ultrasonographic examination. […] This sample was processed and analysed similarly to the other blood samples. The concentration of TMC278 in dog tissue samples was also determined by a qualified research LC-MS/MS method. […] The lower limit of quantification was 10.0 ng/g tissue. […]

>  <MOLECULAR STRING>
Cc1cc(C=CC#N)cc(C)c1Nc1ccnc(Nc2ccc(C#N)cc2)n1

>  <concentration at 232 day>
72.6 ng/g

$$$$

---

# EXPERIMENTAL DETAILS: Plasma kinetics of TMC278 in beagle dogs after single intramuscular administration
# Format: in vivo
# REPORTED CONDITIONS: male, beagle, dog, plasma, intramuscular, 2.5 mg/kg, mean (n=2); 32 h after dose; single IM 2.5 mg/kg, aqueous 30% DMA/50% PEG400 solution
# Procedure: The present study was performed in order to study the plasma kinetics and the absolute bioavailability of TMC278 in beagle dogs after single intramuscular administration (IM) of an aqueous 30% dimethylacetamide (DMA)/50% polyethylene glycol 400 (PEG400) solution of TMC278 at 2.5 mg/kg. […] The concentration of TMC278 in dog plasma was determined by a qualified research LC-MS/MS method after solid phase extraction (SPE). Plasma concentrations of TMC278 were determined after proper sample clean up. […]

>  <MOLECULAR STRING>
Cc1cc(C=CC#N)cc(C)c1Nc1ccnc(Nc2ccc(C#N)cc2)n1

>  <concentration at 32 h (ng/mL)>
8.68

$$$$

---

# EXPERIMENTAL DETAILS: Plasma kinetics of TMC278 in beagle dogs after single intramuscular administration
# Format: in vivo
# REPORTED CONDITIONS: male, beagle, dog, plasma, intramuscular, 2.5 mg/kg, mean (n=2); day 36; single IM 2.5 mg/kg, aqueous 30% DMA/50% PEG400 solution; read-out: plasma concentration during the wash-out period

>  <COMPOUND>
Cc1cc(C=CC#N)cc(C)c1Nc1ccnc(Nc2ccc(C#N)cc2)n1 [TMC278]

>  <concentration at 36 day>
3.36 ng/mL

$$$$

---

# EXPERIMENTAL DETAILS: Plasma kinetics of TMC278 in beagle dogs after single intramuscular administration
# Format: in vivo
# REPORTED CONDITIONS: male, beagle, dog, plasma, intramuscular, 2.5 mg/kg, mean (n=2); day 120; single IM 2.5 mg/kg, aqueous 30% DMA/50% PEG400 solution; read-out: plasma concentration during the wash-out period

>  <COMPOUND>
Cc1cc(C=CC#N)cc(C)c1Nc1ccnc(Nc2ccc(C#N)cc2)n1 [TMC278]

>  <concentration at 120 day [ng/mL]>
3.05

$$$$

---

# EXPERIMENTAL DETAILS: Plasma kinetics of TMC278 in beagle dogs after single intramuscular administration
# Type: in vivo
# REPORTED CONDITIONS: male, beagle, dog, plasma, intramuscular, 2.5 mg/kg, dog No. 16924; day 64; single IM 2.5 mg/kg, aqueous 30% DMA/50% PEG400 solution; read-out: plasma concentration during the wash-out period

>  <MOLECULAR STRING>
Cc1cc(C=CC#N)cc(C)c1Nc1ccnc(Nc2ccc(C#N)cc2)n1

>  <concentration at 64 day / ng/mL>
2.42

$$$$

---

# EXPERIMENTAL DETAILS: Plasma kinetics of TMC278 in beagle dogs after single intramuscular administration
# Assay type: in vivo
# REPORTED CONDITIONS: male, beagle, dog, plasma, intramuscular, 2.5 mg/kg, dog No. 16854; 24 h after dose; single IM 2.5 mg/kg, aqueous 30% DMA/50% PEG400 solution
MEASUREMENT LABEL: concentration at 24 h (ng/mL)

>  <MOLECULAR STRING>
Cc1cc(C=CC#N)cc(C)c1Nc1ccnc(Nc2ccc(C#N)cc2)n1

>  <UNIT TAG>
ng/mL

>  <READOUT VALUE>
11.4

$$$$
